molecular target: GLP-1R (Homo sapiens); construct: host or cells: GLP-1R CRE-bla CHO-K1 cells; assay: EC20 GLP-1(9-36) PAM cAMP assay: dose response of compound in the presence of fixed concentration of GLP-1(9-36); type: cell-based; details: GLP-1R CRE-bla CHO-K1 cells, compound dose response with fixed concentration of GLP-1(9-36), read-out: EC20 GLP-1(9-36) PAM EC50
Sequence (P43220 24-463): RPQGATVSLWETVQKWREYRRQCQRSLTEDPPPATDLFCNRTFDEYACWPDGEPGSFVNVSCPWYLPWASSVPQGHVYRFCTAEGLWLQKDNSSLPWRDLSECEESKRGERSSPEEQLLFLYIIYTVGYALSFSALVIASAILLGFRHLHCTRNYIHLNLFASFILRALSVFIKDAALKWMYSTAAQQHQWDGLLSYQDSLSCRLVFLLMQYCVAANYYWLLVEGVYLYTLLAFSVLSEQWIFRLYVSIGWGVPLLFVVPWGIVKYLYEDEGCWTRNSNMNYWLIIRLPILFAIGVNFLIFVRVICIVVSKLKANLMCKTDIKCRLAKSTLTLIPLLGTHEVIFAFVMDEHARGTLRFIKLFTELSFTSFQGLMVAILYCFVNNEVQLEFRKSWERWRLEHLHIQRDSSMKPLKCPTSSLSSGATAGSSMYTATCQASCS
Sequence (P01275 100-127 partner limits assumed): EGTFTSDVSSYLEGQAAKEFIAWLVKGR
experimentalReadout: EC50

CC(C)(C)c1ccc(C(=O)N[C@@H](Cc2ccc(-c3ncc(-c4ccc(-c5ccc(C(F)(F)F)c(F)c5F)cc4F)cn3)cc2)C(=O)N2CC(C(=O)O)C2)s1; < 800 nM
CC1(C)CCC(C2CCN(c3cnc(-c4ccc(C[C@H](NC(=O)c5ccc(C(C)(C)C)s5)C(=O)N5CC(C(=O)O)C5)cc4)nc3)CC2)CC1; < 800 nM
CCC[C@H]1CC[C@H](C2CCN(c3cnc(-c4ccc(C[C@H](NC(=O)c5ccc(C(C)(C)C)s5)C(=O)N5CC(C(=O)O)C5)cc4)nc3)CC2)CC1; < 800 nM
CC(C)(C)c1ccc(C(=O)NC(Cc2ccc(-c3ncc(N4CCC(c5ccc(Br)cc5)CC4)cn3)cc2)C(=O)N2CC(C(=O)O)C2)s1 (centres unmarked); 800 to 2500 nM
CCC[C@H]1CC[C@H](C2CCN(c3cnc(-c4ccc(C[C@H](NC(=O)c5ccc(C(C)(C)C)s5)C(=O)N5CCC[C@H](C(=O)O)C5)cc4)nc3)CC2)CC1; < 800 nM
CC(C)(C)c1ccc(C(=O)N[C@@H](Cc2ccc(-c3ncc(N4CCC(c5ccc(CC#N)cc5)CC4)cn3)cc2)C(=O)N2CC(C(=O)O)C2)s1; 5000 to 10000 nM
CCCC[C@H]1CC[C@H](c2ccc(-c3cnc(-c4ccc(C[C@H](NC(=O)c5ccc(C(C)(C)C)s5)C(=O)N[C@H](C)C(=O)O)cc4)nc3)cc2)CC1; < 800 nM
CCC[C@H]1CC[C@H](C2CCN(c3cnc(-c4ccc(C[C@H](NC(=O)c5ccc(C(C)(C)C)s5)C(=O)N[C@@H](CC(=O)O)C(=O)O)cc4)nc3)CC2)CC1; < 800 nM
CCCCC1CCN(C2CCN(c3cnc(-c4ccc(C[C@H](NC(=O)c5ccc(C(C)(C)C)s5)C(=O)N5CC(C(=O)O)C5)cc4)nc3)CC2)C(=O)C1 (some centres unmarked); 5000 to 10000 nM
Cc1ccc(-c2ccc(-c3ccc(-c4cnc(-c5ccc(C[C@H](NC(=O)c6ccc(C(C)(C)C)s6)C(=O)N6CC(C(=O)O)C6)cc5)nc4)c(F)c3)cc2)cc1; 2500 to 5000 nM
CCCC1CCC(N2CC=C(c3cnc(-c4ccc(C[C@H](NC(=O)c5ccc(C(C)(C)C)s5)C(=O)N5CC(C(=O)O)C5)cc4)nc3)CC2)CC1 (some centres unmarked); 5000 to 10000 nM
